- ASSAYED SYSTEM: NaV1.8 (Homo sapiens, UniProt Q9Y5Y9)
- Sequence (Q9Y5Y9 whole entry): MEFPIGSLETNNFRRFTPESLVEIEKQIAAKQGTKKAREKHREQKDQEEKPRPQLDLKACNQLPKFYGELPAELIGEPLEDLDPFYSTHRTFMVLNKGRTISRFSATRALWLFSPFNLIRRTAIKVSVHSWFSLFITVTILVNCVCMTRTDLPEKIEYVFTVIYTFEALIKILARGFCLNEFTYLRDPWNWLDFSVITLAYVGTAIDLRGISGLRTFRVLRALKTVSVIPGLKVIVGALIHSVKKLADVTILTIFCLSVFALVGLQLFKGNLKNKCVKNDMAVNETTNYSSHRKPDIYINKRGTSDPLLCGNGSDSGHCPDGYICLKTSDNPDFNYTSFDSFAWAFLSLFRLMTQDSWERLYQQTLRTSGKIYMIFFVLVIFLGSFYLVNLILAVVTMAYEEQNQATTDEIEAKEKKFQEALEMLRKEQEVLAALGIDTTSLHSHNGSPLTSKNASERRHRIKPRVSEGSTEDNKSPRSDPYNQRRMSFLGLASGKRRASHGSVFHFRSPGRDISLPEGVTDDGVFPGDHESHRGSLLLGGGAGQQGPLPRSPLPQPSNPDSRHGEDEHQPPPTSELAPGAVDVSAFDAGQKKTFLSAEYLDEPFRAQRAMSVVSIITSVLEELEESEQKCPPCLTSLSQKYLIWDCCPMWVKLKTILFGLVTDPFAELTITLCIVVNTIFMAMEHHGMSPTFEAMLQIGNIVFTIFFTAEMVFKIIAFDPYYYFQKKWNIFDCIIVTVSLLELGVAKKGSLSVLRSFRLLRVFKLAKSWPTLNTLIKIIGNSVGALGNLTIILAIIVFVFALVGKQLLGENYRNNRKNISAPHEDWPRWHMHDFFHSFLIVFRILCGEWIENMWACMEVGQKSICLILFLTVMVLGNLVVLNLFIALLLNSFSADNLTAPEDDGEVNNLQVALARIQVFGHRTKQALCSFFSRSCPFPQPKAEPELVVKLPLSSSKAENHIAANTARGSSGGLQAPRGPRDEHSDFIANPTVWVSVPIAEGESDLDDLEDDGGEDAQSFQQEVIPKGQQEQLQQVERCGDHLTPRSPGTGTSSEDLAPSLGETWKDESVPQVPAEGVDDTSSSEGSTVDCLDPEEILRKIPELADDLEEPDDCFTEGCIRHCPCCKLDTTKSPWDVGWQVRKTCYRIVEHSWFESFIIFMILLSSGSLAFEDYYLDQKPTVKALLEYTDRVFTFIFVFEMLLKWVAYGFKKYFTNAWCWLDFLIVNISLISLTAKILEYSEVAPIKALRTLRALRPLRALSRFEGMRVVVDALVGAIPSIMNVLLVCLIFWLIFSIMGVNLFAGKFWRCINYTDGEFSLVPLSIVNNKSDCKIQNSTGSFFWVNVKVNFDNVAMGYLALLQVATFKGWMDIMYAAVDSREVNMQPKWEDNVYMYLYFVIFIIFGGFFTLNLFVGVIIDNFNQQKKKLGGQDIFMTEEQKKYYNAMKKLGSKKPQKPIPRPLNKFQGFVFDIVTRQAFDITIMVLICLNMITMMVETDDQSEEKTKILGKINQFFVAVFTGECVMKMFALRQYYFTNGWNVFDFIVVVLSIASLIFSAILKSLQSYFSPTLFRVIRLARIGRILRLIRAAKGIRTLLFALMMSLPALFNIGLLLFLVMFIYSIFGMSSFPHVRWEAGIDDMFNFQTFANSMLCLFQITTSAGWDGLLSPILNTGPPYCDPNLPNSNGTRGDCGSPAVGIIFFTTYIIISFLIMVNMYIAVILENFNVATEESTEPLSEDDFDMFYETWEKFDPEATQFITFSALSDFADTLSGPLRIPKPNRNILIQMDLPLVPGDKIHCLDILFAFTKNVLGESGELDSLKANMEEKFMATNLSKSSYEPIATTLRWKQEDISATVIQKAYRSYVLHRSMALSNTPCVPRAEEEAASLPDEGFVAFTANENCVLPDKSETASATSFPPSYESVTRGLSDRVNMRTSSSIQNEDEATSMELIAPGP
- ASSAY METHOD TEXT: NaV inhibition, optical membrane potential assay (analogous mode)
- Format: cell-based
- PROTOCOL CONDITIONS: activity against NaV 1.8 channel
pIC50: −log10 of the molar value.

# SMILES, pIC50
measured = [
    ("CC(C)(C)c1ccc(C(=O)Nc2cncc(S(C)(=O)=O)c2)c(Oc2ccc(F)cc2Cl)c1", "> 5.70"),
    ("CC(C)(C)c1ccc(C(=O)Nc2cncc(S(N)(=O)=O)c2)c(Oc2ccc(C(F)(F)F)nc2)c1", "> 5.70"),
    ("NS(=O)(=O)c1cncc(NC(=O)c2ccc(C(F)(F)F)cc2Oc2ccc(C(F)(F)F)nc2)c1", "5.00 to 5.70"),
    ("CC(C)(C)c1ccc(C(=O)Nc2cncc(S(C)(=O)=O)c2)c(Oc2ccc(C(F)(F)F)nc2)c1", "5.00 to 5.70"),
    ("CC(C)(C)c1ccc(C(=O)Nc2cncc(S(N)(=O)=O)c2)c(Oc2cccc(C(F)(F)F)n2)c1", "> 5.70"),
]

====

- ASSAYED SYSTEM: NaV1.3 (Homo sapiens, UniProt Q9NY46)
- Sequence (Q9NY46 whole entry): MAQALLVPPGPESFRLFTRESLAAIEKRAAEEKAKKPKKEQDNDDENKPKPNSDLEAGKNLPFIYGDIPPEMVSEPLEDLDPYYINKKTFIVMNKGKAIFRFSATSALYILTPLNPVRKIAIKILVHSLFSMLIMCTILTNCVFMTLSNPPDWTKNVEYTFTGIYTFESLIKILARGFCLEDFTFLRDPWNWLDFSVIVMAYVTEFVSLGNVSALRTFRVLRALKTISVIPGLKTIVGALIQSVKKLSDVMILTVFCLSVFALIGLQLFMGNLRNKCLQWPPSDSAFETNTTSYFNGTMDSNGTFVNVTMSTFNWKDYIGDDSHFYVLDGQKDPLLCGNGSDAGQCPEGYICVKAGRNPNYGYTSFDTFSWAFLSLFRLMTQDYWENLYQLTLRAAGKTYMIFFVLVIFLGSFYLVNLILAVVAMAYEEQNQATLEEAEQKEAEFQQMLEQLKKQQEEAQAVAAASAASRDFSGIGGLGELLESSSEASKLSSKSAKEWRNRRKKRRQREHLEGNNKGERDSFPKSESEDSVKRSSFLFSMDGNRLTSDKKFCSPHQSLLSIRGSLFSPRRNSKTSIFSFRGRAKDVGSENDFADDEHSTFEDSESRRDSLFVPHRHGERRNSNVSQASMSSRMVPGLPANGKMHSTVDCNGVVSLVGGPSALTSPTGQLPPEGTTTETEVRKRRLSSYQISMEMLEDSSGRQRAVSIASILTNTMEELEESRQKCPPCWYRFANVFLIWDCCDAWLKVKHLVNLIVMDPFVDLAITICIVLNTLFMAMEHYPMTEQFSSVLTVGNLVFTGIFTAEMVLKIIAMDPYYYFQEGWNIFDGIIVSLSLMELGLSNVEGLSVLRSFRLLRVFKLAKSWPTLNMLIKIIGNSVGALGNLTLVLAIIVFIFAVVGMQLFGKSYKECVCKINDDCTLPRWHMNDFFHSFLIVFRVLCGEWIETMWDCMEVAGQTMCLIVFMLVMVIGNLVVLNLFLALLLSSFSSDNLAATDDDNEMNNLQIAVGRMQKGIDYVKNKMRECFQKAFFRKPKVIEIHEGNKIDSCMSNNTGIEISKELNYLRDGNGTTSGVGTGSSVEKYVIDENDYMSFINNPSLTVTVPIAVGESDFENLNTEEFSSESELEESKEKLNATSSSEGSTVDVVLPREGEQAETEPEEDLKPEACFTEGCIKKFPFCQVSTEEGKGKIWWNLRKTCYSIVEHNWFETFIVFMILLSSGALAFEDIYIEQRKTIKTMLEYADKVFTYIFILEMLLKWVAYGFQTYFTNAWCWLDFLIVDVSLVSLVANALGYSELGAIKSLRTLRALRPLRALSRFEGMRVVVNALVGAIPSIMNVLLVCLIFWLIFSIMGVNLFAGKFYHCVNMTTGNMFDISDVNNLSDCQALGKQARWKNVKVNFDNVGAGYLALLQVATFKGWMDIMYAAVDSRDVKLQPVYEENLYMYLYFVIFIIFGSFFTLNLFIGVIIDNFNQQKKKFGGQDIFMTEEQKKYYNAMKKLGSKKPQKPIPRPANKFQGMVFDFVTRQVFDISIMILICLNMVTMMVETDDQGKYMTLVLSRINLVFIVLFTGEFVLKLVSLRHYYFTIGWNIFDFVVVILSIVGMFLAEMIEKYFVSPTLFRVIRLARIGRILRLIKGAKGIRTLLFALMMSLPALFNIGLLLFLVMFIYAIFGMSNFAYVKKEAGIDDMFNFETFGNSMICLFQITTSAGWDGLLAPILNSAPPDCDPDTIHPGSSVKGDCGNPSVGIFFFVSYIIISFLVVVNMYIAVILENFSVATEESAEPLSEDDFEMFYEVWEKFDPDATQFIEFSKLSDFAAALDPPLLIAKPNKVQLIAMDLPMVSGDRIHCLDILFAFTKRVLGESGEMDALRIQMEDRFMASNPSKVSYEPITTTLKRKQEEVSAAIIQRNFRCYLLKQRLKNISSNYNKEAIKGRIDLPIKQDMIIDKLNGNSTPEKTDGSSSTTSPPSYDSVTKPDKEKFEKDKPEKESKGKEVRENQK
- ASSAY METHOD TEXT: NaV inhibition, VIPR optical membrane potential assay with electrical stimulation
- Type: cell-based
- Set-up: expressed in transfected cells; host or cells: HEK293
- PROTOCOL CONDITIONS: activity against NaV 1.3 channel

# SMILES, IC50
measured = [
    ("CC(C)(C)c1ccc(C(=O)Nc2cncc(S(N)(=O)=O)c2)c(Oc2ccc(C(F)(F)F)nc2)c1", "10 to 20 µM"),
    ("CC(C)(C)c1ccc(C(=O)Nc2cncc(S(C)(=O)=O)c2)c(Oc2ccc(C(F)(F)F)nc2)c1", "10 to 20 µM"),
    ("NS(=O)(=O)c1cncc(NC(=O)c2ccc(C(F)(F)F)cc2Oc2ccc(C(F)(F)F)nc2)c1", "> 20 µM"),
    ("CS(=O)(=O)c1cncc(NC(=O)c2ccc(C(F)(F)F)cc2Oc2ccc(C(F)(F)F)nc2)c1", "> 20 µM"),
]

====

- ASSAYED SYSTEM: NaV1.8 (Homo sapiens, UniProt Q9Y5Y9)
- ASSAY METHOD TEXT: NaV inhibition, optical membrane potential assay (analogous mode)
- Assay type: cell-based
- PROTOCOL CONDITIONS: activity against NaV 1.8 channel
// IC50 lookup, one value per entry

# SMILES, IC50
measured = [
    ("CC(C)(C)c1ccc(C(=O)Nc2cncc(S(C)(=O)=O)c2)c(Oc2cccc(C(F)(F)F)n2)c1", "2 to 10 µM"),
    ("Cc1ncccc1Oc1cc(C(C)(C)C)ccc1C(=O)Nc1cncc(S(N)(=O)=O)c1", "< 2 µM"),
    ("CS(=O)(=O)c1cncc(NC(=O)c2ccc(C(F)(F)F)cc2Oc2ccc(C(F)(F)F)nc2)c1", "2 to 10 µM"),
    ("CC(C)(C)c1ccc(C(=O)Nc2cncc(S(N)(=O)=O)c2)c(Oc2ccc(F)cc2Cl)c1", "< 2 µM"),
]

====

- ASSAYED SYSTEM: NaV 1.7 channel (Homo sapiens, UniProt Q15858)
- ASSAY METHOD TEXT: NaV inhibition, optical membrane potential assay (analogous mode)
- PROTOCOL CONDITIONS: activity against NaV 1.7 channel
// IC50 lookup, one value per entry

# SMILES, IC50
data = [
    ("CC(C)(C)c1ccc(C(=O)Nc2cncc(S(N)(=O)=O)c2)c(Oc2ccc(C(F)(F)F)nc2)c1", "2 to 10 µM"),
    ("CS(=O)(=O)c1cncc(NC(=O)c2ccc(C(F)(F)F)cc2Oc2ccc(C(F)(F)F)nc2)c1", "> 20 µM"),
    ("CC(C)(C)c1ccc(C(=O)Nc2cncc(S(C)(=O)=O)c2)c(Oc2ccc(C(F)(F)F)nc2)c1", "> 20 µM"),
    ("CC(C)(C)c1ccc(C(=O)Nc2cncc(S(N)(=O)=O)c2)c(Oc2cccc(C(F)(F)F)n2)c1", "> 20 µM"),
    ("Cc1ncccc1Oc1cc(C(C)(C)C)ccc1C(=O)Nc1cncc(S(N)(=O)=O)c1", "> 20 µM"),
    ("CC(C)(C)c1ccc(C(=O)Nc2cncc(S(C)(=O)=O)c2)c(Oc2cccc(C(F)(F)F)n2)c1", "10 to 20 µM"),
    ("CC(C)(C)c1ccc(C(=O)Nc2cncc(S(N)(=O)=O)c2)c(Oc2ccc(F)cc2Cl)c1", "2 to 10 µM"),
    ("CC(C)(C)c1ccc(C(=O)Nc2cncc(S(C)(=O)=O)c2)c(Oc2ccc(F)cc2Cl)c1", "10 to 20 µM"),
    ("NS(=O)(=O)c1cncc(NC(=O)c2ccc(C(F)(F)F)cc2Oc2ccc(C(F)(F)F)nc2)c1", "> 20 µM"),
]
